# IC50 per entry
tested on: naïve human CD8 T cells; assay: Human CD8 T cells pERK Assay; assay type: cell-based; conditions: T-cell, read-out: HuCD8 pERK IC50

{"columns": ["MOLECULE", "UNIT", "IC50"],
 "data": [
  ["COc1cc(F)ccc1C(c1ccc(F)cc1)N1CCN(c2c([N+](=O)[O-])c(=O)n(C)c3ccc(C#N)nc23)CC1 (single isomer, unassigned)", "nM", 360],
  ["C#CCn1c(=O)c([N+](=O)[O-])c(N2CCN(C(c3ccc(F)cc3)C3CC3)CC2)c2nc(C#N)ccc21 (single isomer, unassigned)", "nM", 60]
]}
